Test system: ACHN
Assay remarks: NCI tumour cell line growth inhibition, 48 h
The source made the active and inactive calls. No stated cut-off is given here; in the data, active = GI50 up to about 1.1 µM and inactive = higher.
As shown below, each of these compounds has a reported GI50 value.

>>> endpoint_result("C=C1C(=O)O[C@H]2C/C(C)=C/CC[C@@]3(C)O[C@](C)(CC[C@@H]3I)[C@@H](I)C[C@@H]12")
"7.03 µM (inactive)"
>>> endpoint_result("CC(C)CC(NC(=O)C(COc1ccc([N+](=O)[O-])cc1)Cc1ccccc1)C(=O)Nc1ccccc1 (stereo not given)")
"16.8 µM (inactive)"
>>> endpoint_result("Cc1ccc(S(=O)(=O)N2CCNCCN(S(=O)(=O)c3ccc(C)cc3)CCN(S(=O)(=O)c3ccc(C)cc3)CC2)cc1")
"> 100 µM (inactive)"
>>> endpoint_result("COC(=O)[C@]12CSC[C@H]1C[C@H](c1ccc(N(C)C)cc1)N2")
"> 100 µM (inactive)"
>>> endpoint_result("O=C(O)CCC(=O)c1ccc2sc3ccccc3c2c1")
"> 100 µM (inactive)"

// field: GI50; key: "Cc1c(C#N)c(=N)oc2ccccc12" ; value = > 100 µM (inactive)

// field: GI50; key: [N-]=[N+]=NC1(c2ccccc2)C(=O)Nc2ccccc2C1=O (stereo not given) ; value = 34.6 µM (inactive)

// field: GI50; key: "C/C(CC(=O)Nc1cccc(Cl)c1C)=N\N=C(N)N" ; value = > 100 µM (inactive)

// field: GI50; key: CC(C)(C)C1=C(Br)C(F)(C(C)(C)C)OP1(=O)c1ccccc1 (stereo not given) ; value = 16.5 µM (inactive)

// field: GI50; key: "COc1c(O)c(OC)c2oc(-c3ccc(O)cc3)c(OC)c(=O)c2c1O" ; value = 33.6 µM (inactive)

###

As shown below, each of these compounds has a reported GI50 value.
Tested on: UACC-62
Assay remarks: NCI tumour cell line growth inhibition, 48 h
Active and inactive are the calls of the source. Rule as the data show it: active = GI50 up to about 1.1 µM and inactive = higher.

>>> endpoint_result("Cc1c(C)c2ccc(O)cc2[nH]c1=O")
"> 100 µM (inactive)"
>>> endpoint_result("CC(C)(C)C1CCC2c3c([nH]c4ccccc34)C3C(=O)N(c4ccccc4)C(=O)C3C2C1 (stereo unspecified)")
"20.9 µM (inactive)"
>>> endpoint_result("NC(=O)C(=O)N/N=C1/c2ccccc2CC1C1(O)C(=O)Nc2c(Cl)cc(Cl)cc21 (stereo unspecified)")
"> 100 µM (inactive)"
>>> endpoint_result("Cc1ccccc1-n1c(=O)nc2n(-c3ccc(C(C)(C)C)cc3)c3ccccc3cc-2c1=O")
"19.2 µM (inactive)"
>>> endpoint_result("COc1ccc2c(c1)C/C(=C\\c1ccc(O)c(OC)c1)C2=O")
"> 100 µM (inactive)"
>>> endpoint_result("Cc1coc2c1[C@@H](O)[C@@]1(C)[C@H](CCC[C@@H]1C)C2")
"56.2 µM (inactive)"
>>> endpoint_result("CCOC(CN=C=S)OCC")
"> 10 µM (inactive)"
>>> endpoint_result("CCOC(=O)c1c(-c2ccc(OC)c(O)c2)c(C#N)c(=S)n(C2OC(CO)C(O)C(O)C2O)c1-c1ccccc1 (stereo unspecified)")
"> 100 µM (inactive)"
>>> endpoint_result("CCN1C(=O)/C(=C\\Nc2ccccc2)S/C1=N/Nc1ncc(CC(=O)Nc2ccccc2C)s1")
"83.6 µM (inactive)"
>>> endpoint_result("Cc1cc(Br)cc(C)c1NC(=O)C(=O)C(C(=O)c1ccc(Cl)c(Cl)c1)C1OC(=O)c2ccccc21 (stereo unspecified)")
"59.8 µM (inactive)"

// field: GI50; key: CCCCCCCCOP(=O)(O)OP(=O)(O)OCC1OC(n2ccc(N)nc2=O)C(O)C1O (stereo unspecified) ; value = > 100 µM (inactive)

// field: GI50; key: "CCc1ccc2oc(-c3cc(O)c(-c4nc5cc(CC)ccc5o4)cc3O)nc2c1" ; value = > 100 µM (inactive)

// provenance: ChEMBL document CHEMBL1201862
